Ref: the supplement of paper PMC12042874

# experimental details: amyloid nucleation score (Sup35N fusion, yeast selection) (log enrichment); library NNK3; higher = more nucleation; inactive = no reads after selection;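 further: zero at mode of non-aggregating sequences after 7 days selection at 30°C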
measure name: amyloid nucleation score

INSERT INTO assay_data (substance, measure_name, recorded_measurement) VALUES
  ('VRLYYSKPRLKRGDSCVEKY', 'amyloid nucleation score', 'inactive'),
  ('APWVMLVVSFPRKESRSFGM', 'amyloid nucleation score', 'inactive'),
  ('NHVILKNFFLMLQCYNFTTM', 'amyloid nucleation score', 'inactive'),
  ('DFNSVVLPNGV', 'amyloid nucleation score', 'inactive'),
  ('IMNSPKGYTILWRGSLRGIQ', 'amyloid nucleation score', 'inactive'),
  ('DSSKFLLTCHLWCG', 'amyloid nucleation score', 'inactive'),
  ('AIGYLCSALAKVSLFGKWSV', 'amyloid nucleation score', 'inactive'),
  ('SPICNEEYNNVDTCILWGYF', 'amyloid nucleation score', 'inactive'),
  ('FDRSSGKRMVL', 'amyloid nucleation score', 0.466),
  ('DVALTWPCYVDTTKCQMIMY', 'amyloid nucleation score', 'inactive'),
  ('IMVVQYTWDWPGCCWIRWYL', 'amyloid nucleation score', 'inactive'),
  ('PRDGVFLVKGDRPC', 'amyloid nucleation score', 'inactive'),
  ('LYSCMFIMLFQNYFLPIGVA', 'amyloid nucleation score', 'inactive'),
  ('LFCFSVN', 'amyloid nucleation score', 'inactive'),
  ('LTFIMLCIS', 'amyloid nucleation score', 1.24),
  ('HLRLRRTFGINLH', 'amyloid nucleation score', 'inactive'),
  ('IYRLKDRLDDLVSHVDICVV', 'amyloid nucleation score', 'inactive'),
  ('SSLAGMQEDC', 'amyloid nucleation score', 'inactive'),
  ('YSACSSGVPRCLDMSRATVE', 'amyloid nucleation score', -0.055),
  ('FNETFYGKVGDILISLCRVL', 'amyloid nucleation score', 'inactive'),
  ('VNEIRDILLVSYSKFRAWGQ', 'amyloid nucleation score', 1.2),
  ('VLVNGSGRNWEYYISRRFFF', 'amyloid nucleation score', 'inactive'),
  ('GKSIKGYGHSVFTVVLTVGY', 'amyloid nucleation score', 'inactive');
